Data provenance: patent US20240301409A1

Parameter off-target effect compared to unmodified Rag1-40, in words, tested on Rag1-40 target sequence in the 3′ UTR of firefly luciferase, COS-1 cells, listed per item.
Oligonucleotides are written 5' to 3', each unit as a sugar letter and its base; * is a phosphorothioate linkage, no mark a phosphodiester; rarer units and linkages stand in square brackets, end groups in braces. Plain capitals give the bases only. m = 2'-O-methyl; r = 2'-OH (RNA); f = 2'-fluoro
Attribute Measured: off-target effect compared to unmodified Rag1-40, in words

Substance | Result
Rag1-40-4: saRNA duplex: sense mCmCAACUCAUUCUCCAAGmUmC (SEQ ID NO 5); antisense fUACUfUGGAGAAfUGAGUfUGG*fC*A (SEQ ID NO 9) (sense mCmCrArArCrUrCrArUrUrCrUrCrCrArArGmUmC; antisense fUrArCrUfUrGrGrArGrArAfUrGrArGrUfUrGrG*fC*rA) | completely inhibited
Rag1-40-11: saRNA duplex: sense fCfCAACUCAUUCUCCAAGfUfC (SEQ ID NO 14); antisense fUmAfCfUfUmGmGmAmGmAmAfUmGmAmGfUfUmGmGfCmA (SEQ ID NO 8) (sense fCfCrArArCrUrCrArUrUrCrUrCrCrArArGfUfC) | completely inhibited
